- Subject Of Test: Ribosomal protein S6 kinase alpha-1 (Homo sapiens)
- Measurement Setup: at 1 µM
Recorded Metric: inhibition (%)
Express it in %; write the number only.

**Query** # return recorded inhibition for input `O=C(Nc1n[nH]c2cc(-c3ccccc3)ccc12)C1CC1`
**Result** 1.81

**Query** # return recorded inhibition for input `COc1cc2ncn(-c3cc(OCc4ccccc4C(F)(F)F)c(C(C)=O)s3)c2cc1OC`
**Result** 2.01

**Query** # return recorded inhibition for input `CCS(=O)(=O)c1ccc(OC)c(Nc2ncc(-c3cccc(-c4ccccc4F)c3)o2)c1`
**Result** 1.38

###

- Subject Of Test: Macrophage colony-stimulating factor 1 receptor (Homo sapiens) (UniProt P07333)
- Sequence (P07333 whole entry): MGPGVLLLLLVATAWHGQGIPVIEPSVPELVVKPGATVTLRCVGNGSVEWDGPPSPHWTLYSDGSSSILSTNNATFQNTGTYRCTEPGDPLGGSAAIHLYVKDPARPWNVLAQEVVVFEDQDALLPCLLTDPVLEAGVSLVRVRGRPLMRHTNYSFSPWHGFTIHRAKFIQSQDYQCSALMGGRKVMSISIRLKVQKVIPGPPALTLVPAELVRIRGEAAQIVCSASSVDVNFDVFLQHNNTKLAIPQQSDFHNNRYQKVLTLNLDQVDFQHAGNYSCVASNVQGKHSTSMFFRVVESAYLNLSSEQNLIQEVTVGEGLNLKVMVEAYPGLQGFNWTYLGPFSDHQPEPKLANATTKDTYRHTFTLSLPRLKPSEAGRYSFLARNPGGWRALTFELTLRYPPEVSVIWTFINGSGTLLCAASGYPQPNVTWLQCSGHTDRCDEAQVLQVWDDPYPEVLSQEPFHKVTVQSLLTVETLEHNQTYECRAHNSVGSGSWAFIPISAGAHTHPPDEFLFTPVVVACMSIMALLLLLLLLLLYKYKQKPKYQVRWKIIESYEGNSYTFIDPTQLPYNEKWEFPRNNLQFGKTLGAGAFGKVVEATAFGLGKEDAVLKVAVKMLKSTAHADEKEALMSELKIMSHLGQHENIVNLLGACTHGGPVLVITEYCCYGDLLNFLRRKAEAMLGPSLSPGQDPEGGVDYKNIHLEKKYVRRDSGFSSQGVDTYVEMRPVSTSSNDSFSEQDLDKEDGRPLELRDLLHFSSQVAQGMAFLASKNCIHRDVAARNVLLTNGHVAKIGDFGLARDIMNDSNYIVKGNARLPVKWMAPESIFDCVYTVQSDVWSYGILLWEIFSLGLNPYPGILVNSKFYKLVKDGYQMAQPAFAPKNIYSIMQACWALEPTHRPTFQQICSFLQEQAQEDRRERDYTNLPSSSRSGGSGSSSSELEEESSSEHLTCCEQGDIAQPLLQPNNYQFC
- Measurement Setup: at 0.1 µM
Recorded Metric: inhibition

Example entries begin here.
C/C(Nc1ccc(S(N)(=O)=O)cc1)=C1/C(=O)Nc2ccccc21; 12.1%
CCC(=O)Nc1ccc(C)c(-c2ccc(C(=O)NCC3CC3)cc2)c1; -2.39%
COc1cc2ncn(-c3cc(OCc4cccs4)c(C(N)=O)s3)c2cc1OC; 1.28%

**Query** # return recorded inhibition for input `CN(C)CCOc1ccc(-c2cc(-c3ccc4c(c3)CCC4=NO)c(-c3ccncc3)o2)cc1`
**Result** -3.24%

**Query** # return recorded inhibition for input `COc1cccc(/C=N/Nc2ncnc3c2cnn3-c2cccc(OC)c2)c1`
**Result** 1.79%

###

Quick list: inhibition per entry.
- Subject Of Test: Non-receptor tyrosine-protein kinase TYK2 (Homo sapiens) (UniProt P29597)
- Sequence (P29597 whole entry): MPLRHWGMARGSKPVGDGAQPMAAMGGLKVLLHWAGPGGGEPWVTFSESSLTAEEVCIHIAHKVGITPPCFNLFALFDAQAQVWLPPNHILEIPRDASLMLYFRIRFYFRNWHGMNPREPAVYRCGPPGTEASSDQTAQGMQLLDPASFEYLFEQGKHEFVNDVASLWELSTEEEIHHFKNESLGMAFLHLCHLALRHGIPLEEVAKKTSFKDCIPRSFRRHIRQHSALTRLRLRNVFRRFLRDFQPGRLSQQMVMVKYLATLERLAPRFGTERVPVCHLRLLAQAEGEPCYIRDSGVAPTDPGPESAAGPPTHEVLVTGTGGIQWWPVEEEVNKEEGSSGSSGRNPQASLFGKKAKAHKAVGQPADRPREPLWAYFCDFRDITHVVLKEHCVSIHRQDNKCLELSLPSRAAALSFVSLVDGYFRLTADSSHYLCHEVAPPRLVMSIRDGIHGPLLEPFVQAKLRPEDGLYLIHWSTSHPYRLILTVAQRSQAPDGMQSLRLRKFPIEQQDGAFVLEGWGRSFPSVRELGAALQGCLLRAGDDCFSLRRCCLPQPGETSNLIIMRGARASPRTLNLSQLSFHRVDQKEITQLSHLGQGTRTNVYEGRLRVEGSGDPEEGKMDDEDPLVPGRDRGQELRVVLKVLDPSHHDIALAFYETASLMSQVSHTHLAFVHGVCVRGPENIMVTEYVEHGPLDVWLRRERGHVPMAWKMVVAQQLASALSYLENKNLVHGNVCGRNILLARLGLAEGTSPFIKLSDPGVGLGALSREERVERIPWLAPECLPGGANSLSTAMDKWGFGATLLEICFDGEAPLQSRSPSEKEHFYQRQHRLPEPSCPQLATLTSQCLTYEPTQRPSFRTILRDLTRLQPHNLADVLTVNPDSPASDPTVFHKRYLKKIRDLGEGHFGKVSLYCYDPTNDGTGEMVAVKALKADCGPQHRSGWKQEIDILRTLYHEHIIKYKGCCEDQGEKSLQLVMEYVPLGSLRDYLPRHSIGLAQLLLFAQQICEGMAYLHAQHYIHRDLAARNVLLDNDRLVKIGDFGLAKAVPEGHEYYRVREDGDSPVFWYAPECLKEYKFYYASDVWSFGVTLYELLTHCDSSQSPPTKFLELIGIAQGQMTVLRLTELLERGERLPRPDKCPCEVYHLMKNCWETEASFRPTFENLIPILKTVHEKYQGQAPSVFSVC
- Measurement Setup: at 1 µM
Express it in %; write the number only.

Example entries begin here.
O=C1Nc2ccccc2/C1=C/Nc1ccc(-n2cncn2)cc1; 12.3
CCN(CC)Cc1ccc(Nc2nccc(-c3cnn4ncccc34)n2)cc1; 11.6
COc1cc(C)c(N(C)C(=O)CN(C)C)cc1Nc1nc(Nc2cccc(F)c2C(N)=O)c2cc[nH]c2n1; -1.64
C[C@@H](Oc1cc(-n2cnc3ccc(OCC4CCN(C)CC4)cc32)sc1C(N)=O)c1ccccc1Cl; -4.49

**Query** # return recorded inhibition for input `COc1cc(Nc2ncc3c(C)nc(-c4cccc(Oc5ccccc5)c4)n3n2)cc(OC)c1OC`
**Result** -3.18

**Query** # return recorded inhibition for input `COc1cc(Nc2ncc(-c3ccccc3)o2)cc(OC)c1OC`
**Result** 6.55

**Query** # return recorded inhibition for input `CCS(=O)(=O)c1ccc(OC)c(Nc2ncc(-c3ccccc3Cl)o2)c1`
**Result** -1.06

**Query** # return recorded inhibition for input `C[C@@H](Oc1cc(-n2cnc3ccc(OC4CCN(C)CC4)cc32)sc1C(N)=O)c1ccccc1Cl`
**Result** -7.54

**Query** # return recorded inhibition for input `Fc1ccc(-c2ncn(C3CCNCC3)c2-c2ccnc(Oc3ccc(Oc4ccccc4)cc3)n2)cc1`
**Result** -3.59

**Query** # return recorded inhibition for input `NC(=O)c1cc(-c2ccncc2)cc(-c2ccccc2)c1N`
**Result** -2.55

**Query** # return recorded inhibition for input `CS(=O)(=O)CCNCc1ccc(-c2ccc3ncnc(Nc4ccc(OCc5ccccc5)c(Br)c4)c3c2)o1`
**Result** -4.08

###

Quick list: inhibition per entry.
- Subject Of Test: Serine/threonine-protein kinase Chk1 (Homo sapiens) (UniProt O14757)
- Sequence (whole entry): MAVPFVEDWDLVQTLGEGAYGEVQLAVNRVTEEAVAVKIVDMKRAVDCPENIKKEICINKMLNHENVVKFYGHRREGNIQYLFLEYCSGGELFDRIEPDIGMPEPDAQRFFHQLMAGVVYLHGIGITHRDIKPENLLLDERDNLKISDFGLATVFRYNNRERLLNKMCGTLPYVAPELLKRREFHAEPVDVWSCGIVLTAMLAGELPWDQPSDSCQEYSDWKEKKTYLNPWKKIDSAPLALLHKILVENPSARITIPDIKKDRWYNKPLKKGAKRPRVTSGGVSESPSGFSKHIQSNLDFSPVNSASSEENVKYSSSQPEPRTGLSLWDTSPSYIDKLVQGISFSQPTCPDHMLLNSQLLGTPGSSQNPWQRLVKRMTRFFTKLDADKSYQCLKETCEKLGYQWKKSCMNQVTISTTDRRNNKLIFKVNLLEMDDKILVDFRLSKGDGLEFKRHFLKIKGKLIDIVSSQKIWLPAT
- Measurement Setup: at 1 µM
Express it in %; write the number only.

FC(F)(F)c1cccc(Nc2nccc(-c3cnn4nc(-c5ccccc5)ccc34)n2)c1; 1.39

Let us examine a further case.
**Query** # return recorded inhibition for input `Cc1nnc(-c2ccc(C)c(-c3ccc(C(=O)NCc4ccc(Cl)cc4)cc3)c2)o1`
**Result** 2.22

###

Quick list: inhibition per entry.
- Subject Of Test: Proto-oncogene tyrosine-protein kinase Src (Homo sapiens) (UniProt P12931)
- Sequence (P12931 2-536 limits assumed): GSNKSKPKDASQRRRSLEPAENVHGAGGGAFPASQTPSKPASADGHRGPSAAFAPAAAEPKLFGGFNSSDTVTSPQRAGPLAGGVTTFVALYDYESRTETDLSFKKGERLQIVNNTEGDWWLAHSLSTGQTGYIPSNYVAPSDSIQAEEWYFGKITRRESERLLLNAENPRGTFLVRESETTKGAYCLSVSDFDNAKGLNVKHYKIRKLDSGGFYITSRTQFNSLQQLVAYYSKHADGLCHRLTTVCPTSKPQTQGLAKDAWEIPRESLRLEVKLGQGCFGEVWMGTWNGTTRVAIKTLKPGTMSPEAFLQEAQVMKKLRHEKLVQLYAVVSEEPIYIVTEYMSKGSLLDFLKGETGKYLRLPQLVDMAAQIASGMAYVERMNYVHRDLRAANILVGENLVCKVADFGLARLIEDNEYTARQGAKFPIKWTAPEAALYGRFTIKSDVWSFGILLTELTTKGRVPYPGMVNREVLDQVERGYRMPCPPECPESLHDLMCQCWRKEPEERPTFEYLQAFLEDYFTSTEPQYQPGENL
- Measurement Setup: at 0.1 µM
Express it in %; write the number only.

O=C(NCC1CC1)c1ccc(-c2cccc(C(=O)NC3CC3)c2)cc1; 2.23

**Query** Retrieve inhibition on Proto-oncogene tyrosine-protein kinase Src (Homo sapiens) (UniProt P12931); query `c1ccc(-c2n[nH]cc2-c2ccnc(-c3ccc(OCCN4CCOCC4)cc3)c2)nc1`
**Result** 1.88

**Query** Retrieve inhibition on Proto-oncogene tyrosine-protein kinase Src (Homo sapiens) (UniProt P12931); query `NS(=O)(=O)c1ccc(Nc2cc(-c3ccc(O)c(F)c3)n[nH]2)cc1`
**Result** -0.44

###

Quick list: inhibition per entry.
- Subject Of Test: Serine/threonine-protein kinase BRSK2 (Homo sapiens)
- Measurement Setup: at 1 µM
Express it in %; write the number only.

Example entries begin here.
C#Cc1cccc(Nc2ncnc3ccc(OCCCCNCCS(C)(=O)=O)cc23)c1; 10
Fc1ccc(-c2ncn(C3CCNCC3)c2-c2ccnc(Oc3ccc(F)c(F)c3)n2)cc1; 5.29
COc1ccc2cc(-c3c(-c4ccncc4)nc(-c4ccc([S+](C)[O-])cc4C)n3C)ccc2c1 (stereo not given); 3.47
Fc1ccc(-c2ncn(C3CCNCC3)c2-c2ccnc(Oc3ccc4c(c3)OCO4)n2)cc1; 5.73
Cc1nnc(-c2ccc(C)c(-c3ccc(C(=O)NCc4ccc(Cl)cc4)cc3)c2)o1; 2.51
COC(=O)Nc1nc2ccc(Sc3ccc(NC(=O)Nc4cc(C(F)(F)F)ccc4F)cc3)cc2[nH]1; 1.01
COc1cc2ncn(-c3cc(OCCc4ccccc4)c(C(N)=O)s3)c2cc1OC; 80.3
N#Cc1ccc(Oc2nccc(-c3c(-c4ccc(F)cc4)ncn3C3CCNCC3)n2)cc1; 2.75

**Query** # return recorded inhibition for input `CCS(=O)(=O)c1ccc(OC)c(Nc2ncc(-c3ccccc3Cl)o2)c1`
**Result** -1.12

**Query** # return recorded inhibition for input `O=C1Nc2ccccc2/C1=C/Nc1ccc(-n2cncn2)cc1`
**Result** 26.3

###

- Tested on: Proto-oncogene tyrosine-protein kinase receptor Ret (Homo sapiens), P07949 [V804L]
- Sequence (P07949 whole entry V804L): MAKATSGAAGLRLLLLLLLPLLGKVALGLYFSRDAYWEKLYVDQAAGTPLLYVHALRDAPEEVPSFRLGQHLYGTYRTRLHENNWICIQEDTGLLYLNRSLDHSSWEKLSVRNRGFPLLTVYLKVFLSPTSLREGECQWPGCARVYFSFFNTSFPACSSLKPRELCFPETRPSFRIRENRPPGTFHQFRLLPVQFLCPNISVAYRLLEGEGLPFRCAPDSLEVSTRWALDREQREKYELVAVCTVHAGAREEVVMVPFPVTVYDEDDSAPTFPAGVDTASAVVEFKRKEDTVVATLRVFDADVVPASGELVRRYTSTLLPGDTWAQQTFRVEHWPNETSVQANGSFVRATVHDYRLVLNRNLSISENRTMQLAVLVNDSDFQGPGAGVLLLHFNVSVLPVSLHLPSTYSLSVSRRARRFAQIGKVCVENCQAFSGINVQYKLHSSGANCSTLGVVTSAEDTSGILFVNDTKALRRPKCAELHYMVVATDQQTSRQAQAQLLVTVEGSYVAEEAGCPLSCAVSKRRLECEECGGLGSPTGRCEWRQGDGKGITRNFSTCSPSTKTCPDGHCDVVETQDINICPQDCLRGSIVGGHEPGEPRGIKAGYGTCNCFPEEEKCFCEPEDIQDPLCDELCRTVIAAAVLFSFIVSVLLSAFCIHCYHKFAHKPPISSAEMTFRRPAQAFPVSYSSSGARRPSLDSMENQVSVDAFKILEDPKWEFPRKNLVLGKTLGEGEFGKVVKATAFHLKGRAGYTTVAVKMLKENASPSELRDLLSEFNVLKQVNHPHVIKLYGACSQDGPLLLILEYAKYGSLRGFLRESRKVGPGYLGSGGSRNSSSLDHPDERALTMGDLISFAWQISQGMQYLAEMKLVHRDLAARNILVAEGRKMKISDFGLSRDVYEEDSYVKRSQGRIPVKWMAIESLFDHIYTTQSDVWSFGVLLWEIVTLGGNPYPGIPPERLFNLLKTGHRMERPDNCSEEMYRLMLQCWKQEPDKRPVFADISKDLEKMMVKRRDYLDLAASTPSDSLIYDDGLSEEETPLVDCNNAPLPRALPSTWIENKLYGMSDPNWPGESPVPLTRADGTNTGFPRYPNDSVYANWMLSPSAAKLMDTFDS
- Measurement Setup: at 1 µM
Quick list: inhibition per entry.
Answer format: number, then unit.

Example entries begin here.
NS(=O)(=O)c1ccc(N/N=C2\C(=O)Nc3ccc(C(=O)NCCCn4ccnc4)cc32)cc1; 76.2%
CCC(=O)Nc1ccc(C)c(-c2ccc(C(=O)NCC3CC3)cc2)c1; 2.22%
Cc1ccc(C(=O)NC(C)C)cc1-c1ccc(C(=O)NCC2CC2)cc1; -0.17%

**Query** Retrieve inhibition on Proto-oncogene tyrosine-protein kinase receptor Ret (Homo sapiens), P07949 [V804L]; query `COc1cc2ncn(-c3cc(OCc4ccccc4C(F)(F)F)c(C(C)=O)s3)c2cc1OC`
**Result** 9.72%

###

- Subject Of Test: BDNF/NT-3 growth factors receptor (Homo sapiens) (UniProt Q16620)
- Sequence (Q16620 32-822 limits assumed): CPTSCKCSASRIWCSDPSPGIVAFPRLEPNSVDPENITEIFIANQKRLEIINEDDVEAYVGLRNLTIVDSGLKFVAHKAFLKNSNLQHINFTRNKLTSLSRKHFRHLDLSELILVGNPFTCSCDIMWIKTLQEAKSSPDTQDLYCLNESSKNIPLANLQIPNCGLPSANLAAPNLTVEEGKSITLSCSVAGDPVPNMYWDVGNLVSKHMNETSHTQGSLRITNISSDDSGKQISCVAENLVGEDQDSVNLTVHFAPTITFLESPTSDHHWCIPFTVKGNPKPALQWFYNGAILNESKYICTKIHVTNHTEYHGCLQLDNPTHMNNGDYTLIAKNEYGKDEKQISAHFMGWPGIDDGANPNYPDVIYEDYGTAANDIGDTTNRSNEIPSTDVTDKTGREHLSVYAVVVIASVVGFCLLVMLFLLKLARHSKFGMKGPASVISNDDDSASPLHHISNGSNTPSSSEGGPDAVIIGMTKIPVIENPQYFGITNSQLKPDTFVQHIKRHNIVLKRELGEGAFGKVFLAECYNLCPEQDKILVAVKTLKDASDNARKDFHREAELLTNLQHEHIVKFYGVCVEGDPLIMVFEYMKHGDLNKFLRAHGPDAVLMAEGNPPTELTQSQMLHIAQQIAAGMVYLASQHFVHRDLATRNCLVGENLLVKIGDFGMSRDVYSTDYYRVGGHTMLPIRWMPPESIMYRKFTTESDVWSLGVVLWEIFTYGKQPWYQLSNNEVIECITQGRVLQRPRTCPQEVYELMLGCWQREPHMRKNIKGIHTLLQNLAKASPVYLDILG
- Measurement Setup: at 0.1 µM
Recorded Metric: inhibition (%)
Express it in %; write the number only.

Example entries begin here.
COc1cc2ncn(-c3cc(OCc4cccs4)c(C(N)=O)s3)c2cc1OC; 3.23
Fc1ccc(-c2ncn(C3CCNCC3)c2-c2ccnc(Oc3ccc(Oc4ccccc4)cc3)n2)cc1; 2.54
CNC(=O)c1cncc(/C=C/c2c(C)cccc2C)c1; 0.05
CCS(=O)(=O)c1ccc(OC)c(Nc2ncc(-c3cccc(-c4ccccc4F)c3)o2)c1; 7.74
CN1CCN(CCCNc2nc3ccc(Oc4ccc(NC(=O)Nc5cc(C(F)(F)F)ccc5F)cc4)cc3[nH]2)CC1; 1.65

**Query** # return recorded inhibition for input `C/C(Nc1ccc(S(N)(=O)=O)cc1)=C1/C(=O)Nc2ccccc21`
**Result** 14.1

**Query** # return recorded inhibition for input `COc1cc(N2CCN(C(C)C)CC2)ccc1Nc1nc(Nc2ccc(F)cc2C(=O)NC[C@@H](O)CO)c2cc[nH]c2n1`
**Result** 3.32

###

Quick list: inhibition per entry.
- Subject Of Test: Casein kinase I isoform gamma-2 (Homo sapiens) (UniProt P78368)
- Sequence (P78368 whole entry, looked up, canonical isoform): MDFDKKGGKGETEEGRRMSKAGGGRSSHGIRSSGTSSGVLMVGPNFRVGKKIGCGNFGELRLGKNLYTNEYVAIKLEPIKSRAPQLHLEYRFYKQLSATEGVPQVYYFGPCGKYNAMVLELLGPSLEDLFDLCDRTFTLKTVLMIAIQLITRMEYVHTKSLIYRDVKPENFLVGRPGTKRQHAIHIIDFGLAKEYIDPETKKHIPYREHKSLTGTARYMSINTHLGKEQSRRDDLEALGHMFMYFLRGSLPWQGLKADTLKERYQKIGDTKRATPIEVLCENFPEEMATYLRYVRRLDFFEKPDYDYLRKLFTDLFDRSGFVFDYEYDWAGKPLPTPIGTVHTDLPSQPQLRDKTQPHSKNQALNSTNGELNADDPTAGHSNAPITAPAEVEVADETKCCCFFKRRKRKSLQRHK
- Measurement Setup: at 0.1 µM
Express it in %; write the number only.

Example entries begin here.
COc1cc(N2CCN(C(C)C)CC2)ccc1Nc1nc(Nc2ccc(F)cc2C(=O)NC[C@@H](O)CO)c2cc[nH]c2n1; 2.13
COc1cccc(-n2cnc3c(N/N=C/c4ccncc4)ncnc32)c1; -3.36
O=C1Nc2ccccc2/C1=C/Nc1ccc(-n2cncn2)cc1; 3.66

**Query** Retrieve inhibition on Casein kinase I isoform gamma-2 (Homo sapiens) (UniProt P78368); query `CCc1ccc(Oc2nccc(-c3c(-c4ccc(F)cc4)ncn3C3CCNCC3)n2)cc1`
**Result** 3.26

**Query** Retrieve inhibition on Casein kinase I isoform gamma-2 (Homo sapiens) (UniProt P78368); query `NC(=O)c1cc(-c2ccc(F)cc2)cc(-c2ccncc2)c1N`
**Result** 3.82

**Query** Retrieve inhibition on Casein kinase I isoform gamma-2 (Homo sapiens) (UniProt P78368); query `COc1cc(Nc2ncc(-c3ccccc3)o2)cc(OC)c1OC`
**Result** -1.34

**Query** Retrieve inhibition on Casein kinase I isoform gamma-2 (Homo sapiens) (UniProt P78368); query `CCc1nccc2c1nc(-c1nonc1N)n2CC`
**Result** 0.48

**Query** Retrieve inhibition on Casein kinase I isoform gamma-2 (Homo sapiens) (UniProt P78368); query `COc1cc2ncn(-c3cc(OCc4ccccc4C(F)(F)F)c(C(C)=O)s3)c2cc1OC`
**Result** 2.24

Values from ChEMBL document CHEMBL1961873
